# TARGET: Cytochrome P450 2C19 (Homo sapiens, UniProt P33261)
# Sequence (P33261 whole entry): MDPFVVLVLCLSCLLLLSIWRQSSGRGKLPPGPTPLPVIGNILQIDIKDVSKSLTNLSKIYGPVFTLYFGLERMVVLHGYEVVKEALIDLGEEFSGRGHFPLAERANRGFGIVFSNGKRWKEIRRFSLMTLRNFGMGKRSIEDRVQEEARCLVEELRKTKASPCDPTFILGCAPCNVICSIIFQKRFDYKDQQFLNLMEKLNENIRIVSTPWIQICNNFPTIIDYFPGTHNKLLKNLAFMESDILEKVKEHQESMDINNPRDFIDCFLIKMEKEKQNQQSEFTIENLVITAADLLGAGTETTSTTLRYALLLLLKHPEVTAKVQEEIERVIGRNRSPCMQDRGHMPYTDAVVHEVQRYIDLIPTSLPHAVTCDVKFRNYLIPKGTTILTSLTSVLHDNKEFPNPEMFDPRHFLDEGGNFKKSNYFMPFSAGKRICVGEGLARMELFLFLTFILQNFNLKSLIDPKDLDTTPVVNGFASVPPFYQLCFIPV
# METHOD NOTES: Inhibition of recombinant human CYP2C19 using 3-cyano-7-ethoxycoumarin fluorescent substrate in presence of NADPH-generating system after 15 mins
pIC50: −log10 of the molar value.
QUANTITY NAME: pIC50

(Q) Requested field: pIC50. Item: O=C(O)CNc1cccc(CN(Cc2ccc(-n3cccn3)cc2)S(=O)(=O)c2cccnc2)n1 [OMIDENEPAG]
(A) < 4.70

* * *

# METHOD NOTES: Apparent permeability from apical side at pH 7.4 to basolateral side at pH 7.4 in human Caco2 cells a 10 uM after 30 to 120 mins by HPLC-MS analysis
# Assay type: ADME, cell-based
# ASSAY SETUP: Caco-2, pH 7.4
QUANTITY NAME: Papp A→B at 10 µM (×10⁻⁶ cm/s)
Report the figure in ×10⁻⁶ cm/s without appending any unit label.

(Q) Requested field: Papp A→B at 10 µM. Item: O=C(O)CNc1cccc(CN(Cc2ccc(-n3cccn3)cc2)S(=O)(=O)c2cccnc2)n1 [OMIDENEPAG]
(A) 0.28

* * *

# TARGET: UniProt:P05177
# Sequence (P05177 whole entry): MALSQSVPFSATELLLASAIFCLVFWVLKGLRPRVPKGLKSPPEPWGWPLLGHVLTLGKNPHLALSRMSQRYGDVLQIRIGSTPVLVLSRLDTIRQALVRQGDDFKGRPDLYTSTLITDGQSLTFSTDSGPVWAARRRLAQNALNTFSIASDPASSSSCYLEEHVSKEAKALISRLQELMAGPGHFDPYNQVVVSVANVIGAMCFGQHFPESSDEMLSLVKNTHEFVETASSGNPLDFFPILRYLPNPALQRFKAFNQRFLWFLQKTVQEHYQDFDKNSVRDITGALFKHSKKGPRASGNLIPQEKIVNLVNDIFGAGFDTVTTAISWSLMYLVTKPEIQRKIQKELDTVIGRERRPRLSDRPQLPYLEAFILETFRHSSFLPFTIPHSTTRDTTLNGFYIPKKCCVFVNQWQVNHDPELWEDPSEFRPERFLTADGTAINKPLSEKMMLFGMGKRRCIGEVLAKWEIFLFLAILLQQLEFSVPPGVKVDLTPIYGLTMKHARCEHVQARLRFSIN
# METHOD NOTES: Inhibition of recombinant human CYP1A2 using 3-cyano-7-ethoxycoumarin fluorescent substrate in presence of NADPH-generating system after 15 mins
pIC50: −log10 of the molar value.
QUANTITY NAME: pIC50

(Q) Requested field: pIC50. Item: O=C(O)CNc1cccc(CN(Cc2ccc(-n3cccn3)cc2)S(=O)(=O)c2cccnc2)n1
(A) < 4.70

* * *

# TARGET: Prostaglandin E2 receptor EP4 subtype (Homo sapiens, UniProt P35408)
# Sequence (P35408 whole entry): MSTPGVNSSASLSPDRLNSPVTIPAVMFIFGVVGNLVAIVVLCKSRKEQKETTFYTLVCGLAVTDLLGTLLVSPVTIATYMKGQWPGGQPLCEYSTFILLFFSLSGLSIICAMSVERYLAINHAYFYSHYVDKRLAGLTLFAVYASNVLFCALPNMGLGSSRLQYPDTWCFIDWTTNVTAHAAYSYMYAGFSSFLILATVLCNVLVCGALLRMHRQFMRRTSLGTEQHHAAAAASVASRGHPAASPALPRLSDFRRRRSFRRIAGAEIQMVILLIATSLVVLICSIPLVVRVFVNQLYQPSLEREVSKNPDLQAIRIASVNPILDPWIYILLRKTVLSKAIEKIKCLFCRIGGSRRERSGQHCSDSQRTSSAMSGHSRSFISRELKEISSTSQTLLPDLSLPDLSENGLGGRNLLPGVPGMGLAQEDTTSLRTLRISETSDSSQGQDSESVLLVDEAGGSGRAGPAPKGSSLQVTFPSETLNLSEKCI
# METHOD NOTES: Displacement of [3H]prostaglandin E2 from recombinant human full length EP4 receptor expressed in Chem-1 cell membranes after 60 mins by liquid scintillation counting
QUANTITY NAME: pIC50
Note on units: pIC50 is unitless, being -log10 of a concentration expressed in mol/L.

(Q) Requested field: pIC50. Item: O=C(O)CNc1cccc(CN(Cc2ccc(-n3cccn3)cc2)S(=O)(=O)c2cccnc2)n1
(A) 5.26

* * *

# TARGET: Cytochrome P450 3A4 (Homo sapiens, UniProt P08684)
# Sequence (P08684 whole entry): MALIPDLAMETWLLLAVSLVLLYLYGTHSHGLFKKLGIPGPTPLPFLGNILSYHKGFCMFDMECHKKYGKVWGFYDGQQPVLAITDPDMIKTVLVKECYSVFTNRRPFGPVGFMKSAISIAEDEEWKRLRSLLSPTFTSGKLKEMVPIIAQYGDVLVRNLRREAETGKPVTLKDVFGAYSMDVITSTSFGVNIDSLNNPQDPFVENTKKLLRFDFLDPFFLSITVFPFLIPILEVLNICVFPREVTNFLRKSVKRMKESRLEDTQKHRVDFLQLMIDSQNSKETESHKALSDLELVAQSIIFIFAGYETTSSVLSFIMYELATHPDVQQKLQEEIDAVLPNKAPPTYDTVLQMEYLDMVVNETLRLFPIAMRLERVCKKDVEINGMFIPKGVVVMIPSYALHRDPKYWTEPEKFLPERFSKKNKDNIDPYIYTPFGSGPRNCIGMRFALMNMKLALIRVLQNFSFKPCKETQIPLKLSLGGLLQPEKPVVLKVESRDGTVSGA
# METHOD NOTES: Inhibition of recombinant human CYP3A4 using 7-benzyloxyquinoline fluorescent substrate in presence of NADPH-generating system after 15 mins
QUANTITY NAME: IC50

(Q) Requested field: IC50. Item: O=C(O)CNc1cccc(CN(Cc2ccc(-n3cccn3)cc2)S(=O)(=O)c2cccnc2)n1
(A) > 20 µM
